Below is a list of entries, each paired with its recorded inhibition value.
System: Hepatitis C virus NS3 helicase
Experiment: HCV NS3 helicase inhibitors, primary screen, biochemical, fluorescence polarization, LOPAC1280 library (AID 687035)
Details: Purified HCV NS3 helicase, Cy5-dT15 ssDNA binding fluorescence polarization; stronger effect = higher value; concentration not given here
Please give a number only; it is taken to be in %.

Observe how each entry below is paired with its result.
1) CCN(CC)CCCC(C)Nc1ccnc2cc(Cl)ccc12 (stereo not drawn)	-3
2) CCc1cccc2c3c([nH]c12)C(CC)(CC(=O)O)OCC3 (stereo not drawn)	-3

Can you look up inhibition on Hepatitis C virus NS3 helicase for Cc1ccc(Cl)c(Nc2ccccc2C(=O)O)c1Cl ?
0

Also CN(C)CCC=C1c2ccccc2CCc2ccccc21 ?
-5

Entry to check: Nc1nc2ccc(OC(F)(F)F)cc2s1
-3

// query: NS(=O)(=O)c1cc2c(cc1Cl)NC=NS2(=O)=O
-2

Would you kindly repeat that for CN(C)CCCN1c2ccccc2CCc2ccccc21 ?
-7

Same for CC(COc1ccccc1)N(CCCl)Cc1ccccc1 (stereo not drawn)
-1

###

Experiment: stimulators of nuclear beta-catenin in C2C12, primary screen, imaging, WNT3A-conditioned medium, mouse C2C12, NPC library (AID 1117326)
Details: stimulation, at 2 µM, stronger effect = higher value
value-type: nuclear beta-catenin stimulation (%)
Number in %, nothing else.

1) Cn1c(O)c(N=NC(N)=S)c2ccccc21	3.1
2) COC(=O)c1ccc(O)cc1	0.3
3) COC(=O)/C=C(/C)N	2.2
4) C[C@H](N)C(=O)N[C@@H](C)C(=O)NC1[C@H]2CN(c3nc4c(cc3F)c(=O)c(C(=O)O)cn4-c3ccc(F)cc3F)C[C@@H]12 (some centres undefined)	-2.1
5) CC(CCc1ccc2c(c1)OCO2)NN (centres undefined)	0.2
6) COc1ccccc1N1CCN(CCCNc2cc(=O)n(C)c(=O)n2C)CC1	0.2
7) Cc1onc(-c2ccccc2)c1C(=O)Cl	-1.4
8) CCCc1nc2c(C)cc(-c3nc4ccccc4n3C)cc2n1Cc1ccc(-c2ccccc2C(=O)O)cc1	1.8

May I ask what nuclear beta-catenin stimulation has been recorded for O=C1CCCc2c(O)cccc21 ?
2.2

Try Cc1ncc(CO)c(CN)c1O next.
2.3

Please give the result for COc1ccc(OC)c(C(O)CNC(=O)CN)c1 (centres undefined) too.
4.9

Try the molecule CCN(CC)CCOc1ccc(C(O)(Cc2ccc(Cl)cc2)c2ccc(C)cc2)cc1 (centres undefined)
1.9

Please do the same for CC1c2ccccc2CN1NC(=O)c1ccc(Cl)c(S(N)(=O)=O)c1 (centres undefined) as well.
4.6

###

Experiment: kinase inhibitors against Plasmodium liver-stage infection, cell-based, known kinase inhibitor set, luminescence, hepatoma host viability (AID 624392);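 note: infected cells incubated roughly two days before readout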
Conditions: Plasmodium liver stage in hepatoma cells, luciferase luminescence, concentration not given here; measured here: host liver cell viability
value-type: liver cell % of control (%)
# number only, unit % dropped from output

// worked examples, liver cell % of control included
1. NC(=O)c1cccc(Nc2nccc(Nc3cccc(F)c3)n2)c1	116
2. Cn1cc(C2=C(c3cn(CCCCCO)c4ccccc34)C(=O)NC2=O)c2ccccc21	97.8
3. Nc1c(C(=O)c2cccc(-c3cccnc3)c2)cnn1-c1ccc(F)cc1	219
4. COc1cccc(-n2nc(C)c3c(N/N=C(\C)c4ccncc4)ncnc32)c1	114
5. CCCCCNC(=O)C1CCCN2C(=O)CCC(NC(=O)C(Cc3ccc(OP(=O)(O)O)cc3)NC(C)=O)C(=O)N12 (stereo not given)	106
6. O=c1c(Oc2ccc(F)cc2F)cc2cnc(NC3CCOCC3)nc2n1C1CCS(=O)(=O)CC1	120
7. FC(F)(F)CNc1nccc(-c2cnn3ncccc23)n1	95.3
8. Fc1ccc(-c2ncn(C3CCNCC3)c2-c2ccnc(Oc3ccccc3)n2)cc1	73.1
9. CC1=C(C(=O)Nc2ccc3[nH]ncc3c2)C(c2ccc3ccccc3c2)CC(=O)N1 (stereo not given)	109

Kindly consider the entry below.
Name the recorded liver cell % of control for COc1cc[nH]c1C=C1C(=O)Nc2ccc(F)c(C#CC3(O)CCNCC3)c21 .
70.4
